study_system: GlyR α1^F100A (Homo sapiens, UniProt P23415, F128A)
Sequence (P23415 29-457 F128A): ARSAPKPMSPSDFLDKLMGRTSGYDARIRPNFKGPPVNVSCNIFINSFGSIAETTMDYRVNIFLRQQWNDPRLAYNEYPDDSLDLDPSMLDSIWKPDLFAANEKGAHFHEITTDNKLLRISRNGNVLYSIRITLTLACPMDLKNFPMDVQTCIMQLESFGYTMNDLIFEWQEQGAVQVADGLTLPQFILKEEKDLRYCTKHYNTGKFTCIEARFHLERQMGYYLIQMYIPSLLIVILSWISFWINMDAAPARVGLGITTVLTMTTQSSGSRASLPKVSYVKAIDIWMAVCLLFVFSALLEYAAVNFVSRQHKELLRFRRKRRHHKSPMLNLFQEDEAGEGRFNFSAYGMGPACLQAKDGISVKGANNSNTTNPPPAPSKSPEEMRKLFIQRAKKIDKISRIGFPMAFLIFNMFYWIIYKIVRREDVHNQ
experiment_description: Whole-cell recording of substituted GlyR in HEK cells
assay_setup: read-out: Zn^2+ Inhibition IC50, modulation of EC50 glycine currents
pIC50: −log10 of the molar value.
recorded_endpoint: pIC50

Any idea what its pIC50 is? The molecule is [Zn+2] [Zn^2+]
< 3.00

* * *

study_system: GlyR α1^F100A (Homo sapiens, UniProt P23415, F128A)
experiment_description: Whole-cell recording of substituted GlyR in HEK cells
assay_setup: read-out: Zn^2+ Activation EC50, direct activation without glycine
recorded_endpoint: pEC50
Numbers only, as −log10 of the molar value.

Give its pEC50 value. Item: [Zn+2]
5.04
